Provenance of the data: paper PMC8041284

Tested System: BTK (Homo sapiens, UniProt Q06187)
Sequence (Q06187 402-655 limits assumed): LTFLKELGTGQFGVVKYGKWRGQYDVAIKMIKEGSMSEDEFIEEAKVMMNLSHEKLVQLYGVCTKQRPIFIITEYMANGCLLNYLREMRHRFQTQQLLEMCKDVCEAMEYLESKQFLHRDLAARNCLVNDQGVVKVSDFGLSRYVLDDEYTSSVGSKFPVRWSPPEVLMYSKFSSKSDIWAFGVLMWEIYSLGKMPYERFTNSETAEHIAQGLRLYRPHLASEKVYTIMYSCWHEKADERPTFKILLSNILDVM
Assay Info: biochemical
Settings: read-out: BTK inhibition (%), 0.75 uM BTK, […] probe 3l, 15 min preincubation
Parameter Measured: inhibition at 10 µM (%)
# output: bare number, implied unit %

[[record]]
given_smiles = "CCOC(=O)c1c2c3c(cccc3[nH]c1=O)C(=O)c1ccccc1-2"
parameter_measured = "inhibition at 10 µM"
readout_unit = "%"
assay_value = -20.1

[[record]]
given_smiles = "CCCCCCCCC/C(=C\\C1=C(C)C(=O)C(OC)=C(OC)C1=O)C(=O)O"
parameter_measured = "inhibition at 10 µM"
readout_unit = "%"
assay_value = -13.9

[[record]]
given_smiles = "CN1CCN(c2ccc(Nc3ncc4cc(C#N)c(=O)n(C5CCCC5)c4n3)cc2)CC1"
parameter_measured = "inhibition at 10 µM"
readout_unit = "%"
assay_value = 19.3


Proceeding to the next molecule to report its inhibition at 10 µM.
Returns the measured inhibition at 10 µM for the input molecule. Input: COc1cccc2c1C(=O)c1c(O)c3c(c(O)c1C2=O)C[C@@](O)(C(=O)CO)C[C@@H]3O[C@H]1C[C@H](N)[C@@H](O)[C@H](C)O1
45.1

###

Tested System: BTK (Homo sapiens, UniProt Q06187)
Assay Info: biochemical
Settings: read-out: BTK inhibition (%), 0.75 uM BTK, […] probe 3l, 15 min preincubation
Catalogue of inhibition at 10 µM readings, one per entry.

Dear colleague, I am looking for the recorded inhibition at 10 µM of the following compound: C=C1CC[C@@H]2[C@](C)(CO)[C@H](O)CC[C@@]2(C)[C@@H]1C/C=C1/C(=O)OC[C@H]1O
-6.2%

Also C1=C/COCc2cc(ccc2OCCN2CCCC2)Nc2nccc(n2)-c2cccc(c2)COC/1 , if possible.
71.7%

Continue with COc1cccc(-n2c(=O)[nH]c3cc(Cl)n(-c4ccc(-c5cccc(OC)c5O)cc4)c3c2=O)c1
99.3%

Please answer likewise for C/C=C(/C)C(=O)OC(=O)/C(C)=C\C
-8.6%

###

Reported inhibition at 10 µM by item:
Tested System: BTK (Homo sapiens)
Assay Info: biochemical
Settings: read-out: BTK inhibition (%), 0.75 uM BTK, […] probe 3l, 15 min preincubation
Your answer is read as %, so omit the unit and give the number.

For orientation, consider the following solved cases.
[[record]]
given_smiles = "CN(Cc1ccc(C(C)(C)C)cc1)Cc1cccc2ccccc12"
parameter_measured = "inhibition at 10 µM"
readout_unit = "%"
assay_value = 62.3

[[record]]
given_smiles = "CC1(C)CC[C@]2(C(=O)O[C@@H]3O[C@H](CO)[C@@H](O)[C@H](O)[C@H]3O)CC[C@]3(C)C(=CC[C@@H]4[C@@]5(C)CC[C@H](O[C@@H]6O[C@H](C(=O)O)[C@@H](O)[C@H](O)[C@H]6O[C@@H]6O[C@H](CO)[C@@H](O)[C@H](O)[C@H]6O)C(C)(C)[C@@H]5CC[C@]43C)[C@@H]2C1"
parameter_measured = "inhibition at 10 µM"
readout_unit = "%"
assay_value = 4.6

[[record]]
given_smiles = "CNC[C@H](O)c1cccc(O)c1"
parameter_measured = "inhibition at 10 µM"
readout_unit = "%"
assay_value = -20.2


Param item = O=C1c2ccc(Nc3ccc(F)cc3F)cc2CCc2ccc(OC[C@H](O)CO)cc21 ; retrieve measured inhibition at 10 µM.
13.1

Similarly, COc1ccc(S(=O)(=O)Nc2nc(-c3cccc([N+](=O)[O-])c3)cs2)cc1OC ?
7.7

Param item: Fc1ccc(C(c2ccc(F)cc2)N2CCN(C/C=C/c3ccccc3)CC2)cc1
87.2

Same lookup for CCCCC[C@H](O)/C=C/[C@H]1[C@H](O)CC(=O)[C@@H]1C/C=C\CCCC(=O)O , please.
-11.7

###

Tested System: BTK (Homo sapiens)
Assay Info: biochemical
Settings: read-out: BTK inhibition (%), 0.75 uM BTK, […] probe 3l, 15 min preincubation
Here, each record is paired with measured inhibition at 10 µM data.
Supply the numeric figure in %, leaving out any unit text.

Please review the following examples before continuing.
[[record]]
compound = "O=CCc1ccccc1 [PCM-0216613]"
parameter_measured = "inhibition at 10 µM"
assay_value = 6.9

[[record]]
compound = "O=S(=O)(O)c1cc(O)ccc1O [PCM-0086281]"
parameter_measured = "inhibition at 10 µM"
assay_value = 3.9

[[record]]
compound = "Cn1c(=O)c2c(ncn2CC(O)CO)n(C)c1=O (stereo not shown) [PCM-0085824]"
parameter_measured = "inhibition at 10 µM"
assay_value = 0.8

[[record]]
compound = "CCC(CC)n1ccc2c(C(=O)NCc3c(C)cc(C)[nH]c3=O)cc(C#N)cc21 [PCM-0215402]"
parameter_measured = "inhibition at 10 µM"
assay_value = 1.5

[[record]]
compound = "CC1(C)CC[C@]2(C(=O)O[C@@H]3O[C@H](CO[C@@H]4O[C@H](CO)[C@@H](O)[C@H](O)[C@H]4O)[C@@H](O)[C@H](O)[C@H]3O)CC[C@]3(C)C(=CC[C@@H]4[C@@]5(C)CC[C@H](O[C@@H]6OC[C@H](O)[C@H](O)[C@H]6O)[C@@](C)(CO)[C@@H]5CC[C@]43C)[C@@H]2C1 [PCM-0216172]"
parameter_measured = "inhibition at 10 µM"
assay_value = 13.9

[[record]]
compound = "C=C1CC[C@@H]2[C@](C)(CO)[C@H](O)CC[C@@]2(C)[C@H]1C/C=C1\\C=COC1=O [PCM-0215003]"
parameter_measured = "inhibition at 10 µM"
assay_value = 14


Moving on to another compound below.
Observed inhibition at 10 µM on BTK (Homo sapiens) for CN(C[C@@H]1COCCO1)S(=O)(=O)Nc1ccc2ccc3ncc(-c4cnn(C)c4)cc3c(=O)c2c1 [PCM-0095338] , please.
33.1

###

Below: a set of entries, each annotated with reported inhibition at 10 µM.
Tested System: BTK (Homo sapiens)
Assay Info: biochemical
Settings: read-out: BTK inhibition (%), 0.75 uM BTK, […] probe 3l, 15 min preincubation
// units = %; emit number, no label

[[record]]
compound = "COc1c(C)cnc(Cn2cnc3c(Cl)nc(N)nc32)c1C"
readout_unit = "%"
assay_value = -10.3

[[record]]
compound = "COc1ccccc1N1CCN(CCCNc2cc(=O)n(C)c(=O)n2C)CC1"
readout_unit = "%"
assay_value = -0.8

[[record]]
compound = "NCCc1ccc(O)c(O)c1"
readout_unit = "%"
assay_value = -2.3


Fill in: inhibition at 10 µM of CCOC(=O)N1CCC(CN(Cc2ccc(Cl)cc2)Cc2ccc([N+](=O)[O-])s2)C1 (centres unmarked) is ___
20.1

Please give the result for O=C1/C(=C/c2cccs2)CC/C1=C\c1cccs1 too.
6

###

Tested System: BTK (Homo sapiens, UniProt Q06187)
Assay Info: biochemical
Settings: read-out: BTK inhibition (%), 0.75 uM BTK, […] probe 3l, 15 min preincubation
Parameter Measured: inhibition at 10 µM (%)
Give the value in % but do not write % after it.

As a guide, the following entries are already answered.
[[record]]
given_smiles = "O=C(O)c1nn(Cc2ccc(Cl)cc2Cl)c2ccccc12"
tested_system = "BTK (Homo sapiens, UniProt Q06187)"
parameter_measured = "inhibition at 10 µM"
readout_unit = "%"
assay_value = 11

[[record]]
given_smiles = "C[C@]12CCC(=O)C=C1[C@@H]1C[C@@H]1[C@H]1[C@@H]3[C@@H]4C[C@@H]4[C@@]4(CCC(=O)O4)[C@@]3(C)CC[C@@H]12"
tested_system = "BTK (Homo sapiens, UniProt Q06187)"
parameter_measured = "inhibition at 10 µM"
readout_unit = "%"
assay_value = -15.6

[[record]]
given_smiles = "CC(C)CN(C[C@@H](O)[C@H](Cc1ccccc1)NC(=O)O[C@H]1CCOC1)S(=O)(=O)c1ccc(N)cc1"
tested_system = "BTK (Homo sapiens, UniProt Q06187)"
parameter_measured = "inhibition at 10 µM"
readout_unit = "%"
assay_value = -41.2


Please find the next compound below.
Observed inhibition at 10 µM on BTK (Homo sapiens, UniProt Q06187) for CS(=O)(=O)Nc1ccc([N+](=O)[O-])cc1Oc1ccccc1 , please.
3.4

###

Each entry below carries its recorded inhibition at 10 µM.
Tested System: BTK (Homo sapiens, UniProt Q06187)
Assay Info: biochemical
Settings: read-out: BTK inhibition (%), 0.75 uM BTK, […] probe 3l, 15 min preincubation
Provide only the numeric value, understood in %.

Reference set, count: 2
[[record]]
given_smiles = "CN1CCN(CCCNc2ncc(Cl)c(-c3cc4c(C(=O)NC5CC5)cccc4s3)n2)CC1"
assay_value = -10.8

[[record]]
given_smiles = "c1cc(-c2cnn3cc(-c4ccc(N5CCNCC5)cc4)cnc23)c2cccnc2c1"
assay_value = 3.9


Form field: reported inhibition at 10 µM of CC1=C[C@H]2[C@@H](CC1)[C@H](C)CC[C@H]2[C@@H](C)C(=O)O
-3.1

Next compound: COc1ccc([C@@H]2CC(=O)c3c(O)cc(O[C@@H]4O[C@H](CO[C@@H]5O[C@@H](C)[C@H](O)[C@@H](O)[C@H]5O)[C@@H](O)[C@H](O)[C@H]4O)cc3O2)cc1OC
5.4
